TARGET_DESC: T1, human CD47 on cells (SHP-77 tumor cells, human red blood cells, CCRF-CEM cells, human CD47 CHO-K1 stable cell … (human, UniProt Q08722 19-323))
T1 construct: whole, on cells; also called RBC
ASSAY_TEXT: flow cytometry on SHP-77 cells
Quick rule for you: EC50 under 7 nM gets Met, anything else gets Not met.

A selection of reference data follows.
Consider 108VH5.M15 / 108VL1.M5 (antibody, human IgG4 S228P, kappa, V domains shown, Full-length IgG4 (S228P), kappa; also called VH5.M15 VL1.M5) VH: EVQLVQSGAEVKKPGASVKVSCKASGYTFTHHWIHWVRQAPGQGLEWMGMIDASDSSTRYAQKFQGRVTMTRDTSTSTVYMELSSLRSEDTAVYYCARLGRYYFDYWGQGTLVTVSS VL: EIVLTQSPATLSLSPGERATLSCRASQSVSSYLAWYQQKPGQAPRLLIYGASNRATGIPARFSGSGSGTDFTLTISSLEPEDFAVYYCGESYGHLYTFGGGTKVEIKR . Does its EC50 lie strictly below 7 nM?
Not met

Consider 108VH5.M11 / 108VL1.M5 (antibody, human IgG4 S228P, kappa, V domains shown, Full-length IgG4 (S228P), kappa; also called VH5.M11 VL1.M5) VH: EVQLVQSGAEVKKPGASVKVSCKASGYTFTHHYIHWVRQAPGQGLEWMGMIDASDSETRYAQKFQGRVTMTRDTSTSTVYMELSSLRSEDTAVYYCARLGRYYFDYWGQGTLVTVSS VL: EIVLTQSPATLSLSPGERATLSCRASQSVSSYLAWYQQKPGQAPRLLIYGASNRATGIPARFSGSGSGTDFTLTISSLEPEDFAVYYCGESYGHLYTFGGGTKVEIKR . Does its EC50 lie strictly below 7 nM?
Not met

Okay, now this binder:
Consider 108VH4.M4-VL1.M1 (antibody, V domains shown, also called original humanized 108C10A6 antibody) VH: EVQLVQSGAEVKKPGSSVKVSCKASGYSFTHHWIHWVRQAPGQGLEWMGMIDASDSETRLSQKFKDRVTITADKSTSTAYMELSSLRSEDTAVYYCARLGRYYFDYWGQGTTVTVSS VL: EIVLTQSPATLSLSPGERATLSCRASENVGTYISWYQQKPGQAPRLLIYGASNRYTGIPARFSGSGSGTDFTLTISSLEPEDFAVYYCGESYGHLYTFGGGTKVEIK . Does its EC50 lie strictly below 7 nM?
Met
